# System: AP-1
# Protocol description: Cellular transrepression assay (AP-1 luciferase reporter in A549 cells, PMA activated)
# Assay type: cell-based
# Assay context: 7 h, 10 ng/ml PMA, read-out: AP-1 Max % inhibition (measured in cellular transrepression assay)
Decision: Emax >= 40% yields t, all other cases yield f.

>>> label("Cc1ccc2c(n1)Oc1nc(-c3ccc(C(=O)N4CCOCC4)c(F)c3)ccc1[C@H]2C(C)(C)C(=O)Nc1nncs1 [Example 42]")
"t"
>>> label("Cc1ccc2c(n1)Oc1nc(-c3ccc(C(=O)N4CCC(F)(F)C4)cc3)ccc1[C@H]2C(C)(C)C(=O)Nc1nncs1 [Example 40]")
"t"
>>> label("CC(C)(C(=O)Nc1nncs1)C1c2ccc(Cl)nc2Oc2nc(-c3ccc(C(=O)N4CCOCC4)cc3)ccc21 (centres unmarked) [Example 60]")
"t"
>>> label("CC(C)(C(=O)Nc1nncs1)C1c2cccnc2Oc2nc(-c3ccc(C(=O)N4CCOCC4)cc3)ccc21 (centres unmarked) [Example 5]")
"f"
>>> label("CN(C)C(=O)c1ccc(-c2ccc3c(n2)Oc2nc(Cl)ccc2C3C(C)(C)C(=O)Nc2nncs2)cc1 (centres unmarked) [Example 54]")
"t"

Task item: Reported Emax reaches at least 40% for CCN(C)C(=O)c1ccc(-c2ccc3c(n2)Oc2ncccc2C3C(C)(C)C(=O)Nc2nncs2)cc1 (centres unmarked) [Example 4] ?
Reply: t

Task item: Reported Emax reaches at least 40% for CCN(C)C(=O)c1ccc(-c2ccc3c(n2)Oc2nc(C)ccc2[C@@H]3C(C)(C)C(=O)Nc2nncs2)cc1 [Example 22] ?
Reply: t

Task item: Reported Emax reaches at least 40% for Cc1ccc2c(n1)Oc1nc(-c3ccc(C(=O)N(C)C)cc3)ccc1[C@H]2C(C)(C)C(=O)Nc1nnn(C)n1 [Example 94] ?
Reply: f

###

# System: AP-1
# Protocol description: Cellular transrepression assay (AP-1 luciferase reporter in A549 cells, PMA activated)
# Assay type: cell-based
# Assay context: 7 h, 10 ng/ml PMA, read-out: AP-1 (EC50, nM) (measured in cellular transrepression assay)
Output satisfied for records whose EC50 is lower than 400 nM, not satisfied for records at or above 400 nM.

Please review the following examples before continuing.
>>> label("CCN(C)C(=O)c1ccc(-c2ccc3c(n2)Oc2nc(C)ccc2[C@@H]3C(C)(C)C(=O)Nc2nnc(C(=O)NC3CC3)s2)cc1")
"not satisfied"
>>> label("CC(C)Sc1ccc2c(n1)Oc1nc(-c3ccc(C(=O)N(C)C)cc3)ccc1C2C(C)(C)C(=O)Nc1nncs1 (stereo not shown)")
"satisfied"
>>> label("CCN(C)C(=O)c1ccc(-c2ccc3c(n2)Oc2ncccc2C3C(C)(C)C(=O)Nc2nncs2)cc1 (stereo not shown) [Example 4]")
"satisfied"
>>> label("Cc1ccc2c(n1)Oc1nc(-c3ccc(C(=O)N(C)C4CC4)cc3)ccc1[C@H]2C(C)(C)C(=O)Nc1nncs1")
"satisfied"
>>> label("CCN(C)C(=O)c1ccc(-c2ccc3c(n2)Oc2nc(C)ccc2[C@@H]3C(C)(C)C(=O)Nc2ncc(C)s2)cc1")
"not satisfied"

Task item: Identify whether the molecule CN(C)C(=O)c1ccc(-c2ccc3c(n2)Oc2nc(Cl)ccc2C3C(C)(C)C(=O)Nc2nncs2)cc1 (stereo not shown) records EC50 below 400 nM.
Reply: satisfied

###

# System: AP-1
# Protocol description: Cellular transrepression assay (AP-1 luciferase reporter in A549 cells, PMA activated)
# Format: cell-based
# Assay context: 7 h, 10 ng/ml PMA, read-out: AP-1 (EC50, nM) (measured in cellular transrepression assay)
We begin with a simple list: items and their reported EC50.
Dear colleague, please return just the value in nM, with no unit written.

Solved entries:
>>> result("Cc1ccc2c(n1)Oc1nc(N(C)C)ccc1C2C(C)(C)C(=O)Nc1nncs1 (centres unmarked)")
198
>>> result("CC(C)(C(=O)Nc1nncs1)C1c2cccnc2Oc2nc(-c3ccc(C(=O)N4CCOCC4)cc3)ccc21 (centres unmarked)")
142
>>> result("Cc1ccc2c(n1)Oc1nc(-c3ccc(C(=O)N4CCCC4)cc3)ccc1C2C(C)(C)C(=O)Nc1nncs1 (centres unmarked)")
541
>>> result("CN(C)c1ccc2c(n1)Oc1nc(-c3ccc(C(=O)N4CCOCC4)cc3)ccc1C2C(C)(C)C(=O)Nc1nncs1 (centres unmarked)")
18
>>> result("CN(C)C(=O)c1ccc(-c2ccc3c(n2)Oc2nc(C#N)ccc2C3C(C)(C)C(=O)Nc2nncs2)cc1 (centres unmarked)")
335

Task item: Param item = CCN(C)C(=O)c1ccc(-c2ccc3c(n2)Oc2nc(N(C)C)ccc2C3C(C)(C)C(=O)Nc2nnc(C)s2)cc1 (centres unmarked) ; retrieve measured EC50.
Reply: 67.2

Task item: Param item = CCN(C)C(=O)c1ccc(-c2ccc3c(n2)Oc2nc(C)ccc2[C@@H]3C(C)(C)C(=O)Nc2nccs2)cc1 ; retrieve measured EC50.
Reply: 14.6

Task item: Param item = CCN(C)C(=O)c1ccc(-c2ccc3c(n2)Oc2nc(C)ccc2[C@@H]3C(C)(C)C(=O)Nc2nnc(C(=O)N3CCOCC3)s2)cc1 ; retrieve measured EC50.
Reply: 908

Task item: Param item = Cc1ccc2c(n1)Oc1nc(-c3ccc(C(=O)N4CCC4)cc3)ccc1[C@H]2C(C)(C)C(=O)Nc1nncs1 ; retrieve measured EC50.
Reply: 470

Task item: Param item = Cc1nnc(NC(=O)C(C)(C)C2c3ccc(Cl)nc3Oc3nc(-c4ccc(C(=O)N(C)C)cc4)ccc32)s1 (centres unmarked) ; retrieve measured EC50.
Reply: 70.6

###

We begin with a simple list: items and their reported Emax.
# Tested on: AP-1
# Protocol description: Cellular transrepression assay (AP-1 luciferase reporter in A549 cells, PMA activated)
# Type: cell-based
# Assay context: 7 h, 10 ng/ml PMA, read-out: AP-1 Max % inhibition (measured in cellular transrepression assay)
Dear colleague, please return just the value in %, with no unit written.

Solved entries:
>>> result("CCN(C)C(=O)c1ccc(-c2ccc3c(n2)Oc2ncccc2C3C(C)(C)C(=O)Nc2nncs2)cc1 (single isomer, unassigned) [Example 9]")
55.4
>>> result("Cc1ccc2c(n1)Oc1nc(-c3ccc(C(=O)N4CCOCC4)cc3)ccc1[C@H]2C(C)(C)C(=O)Nc1nnc(C(=O)NC2CCOCC2)s1 [Example 88]")
32.9
>>> result("Cc1ccc2c(n1)Oc1nc(-c3ccc([S+](C)[O-])cc3)ccc1C2C(C)(C)C(=O)Nc1nncs1 (stereo not drawn) [Example 36]")
26.9

Task item: Param item = CCOC(=O)c1nnc(NC(=O)C(C)(C)[C@H]2c3ccc(C)nc3Oc3nc(-c4ccc(C(=O)N(C)CC)cc4)ccc32)s1 [Example 32] ; retrieve measured Emax.
Reply: 74.3

Task item: Param item = CCN(C)C(=O)c1ccc(-c2ccc3c(n2)Oc2nc(C)ccc2[C@@H]3C(C)(C)C(=O)Nc2nncs2)cc1F [Example 21] ; retrieve measured Emax.
Reply: 49.7

Task item: Param item = CCC(=O)c1ccc(-c2ccc3c(n2)Oc2nc(C)ccc2[C@@H]3C(C)(C)C(=O)Nc2nncs2)cc1 [Example 76] ; retrieve measured Emax.
Reply: 48.5

Task item: Param item = CCN(C)C(=O)c1ccc(-c2ccc3c(n2)Oc2nc(N(C)C)ccc2C3C(C)(C)C(=O)Nc2nnc(C)s2)cc1 (stereo not drawn) [Example 71] ; retrieve measured Emax.
Reply: 48.6

Task item: Param item = Cc1ccc2c(n1)Oc1nc(-c3ccc(C(=O)N4CCOCC4)cc3)ccc1[C@H]2C(C)(C)C(=O)Nc1nnc(C2CC2)s1 [Example 93] ; retrieve measured Emax.
Reply: 44.3

###

# Test system: AP-1
# Protocol description: Cellular transrepression assay (AP-1 luciferase reporter in A549 cells, PMA activated)
# Format: cell-based
# Assay context: 7 h, 10 ng/ml PMA, read-out: AP-1 (EC50, nM) (measured in cellular transrepression assay)
We begin with a simple list: items and their reported EC50.
Dear colleague, please return just the value in nM, with no unit written.

Solved entries:
>>> result("CCN(C)C(=O)c1ccc(-c2ccc3c(n2)Oc2nc(C)ccc2[C@@H]3C(C)(C)C(=O)Nc2nnc(C(=O)NC)s2)cc1")
759
>>> result("Cc1ccc2c(n1)Oc1nc(-c3ccc(C(=O)N(C)C)cc3)ccc1[C@H]2C(C)(C)C(=O)Nc1nncs1")
90.1
>>> result("Cc1ccc2c(n1)Oc1nc(-c3ccc(C(=O)N4CCOCC4)cc3)ccc1C2C(C)(C)C(=O)Nc1nncs1 (stereo not shown)")
460

Task item: Form entry - test system: AP-1; read-out: EC50; molecule: CC(C)(C(=O)Nc1nncs1)C1c2ccc(Cl)nc2Oc2nc(-c3ccc(C(=O)N4CCOCC4)cc3)ccc21 (stereo not shown)
Reply: 10.7

###

# Tested on: AP-1
# Protocol description: Cellular transrepression assay (AP-1 luciferase reporter in A549 cells, PMA activated)
# Assay type: cell-based
# Assay context: 7 h, 10 ng/ml PMA, read-out: AP-1 (EC50, nM) (measured in cellular transrepression assay)
Output T for records whose EC50 is lower than 100 nM, F for records at or above 100 nM.

Please review the following examples before continuing.
>>> label("CCN(C)C(=O)c1ccc(-c2ccc3c(n2)Oc2nc(C)ccc2[C@@H]3C(C)(C)C(=O)Nc2nncs2)cc1")
"T"
>>> label("CCN(C)C(=O)c1ccc(-c2ccc3c(n2)Oc2ncccc2C3C(C)(C)C(=O)Nc2nncs2)cc1 (single isomer, unassigned) [Example 9]")
"T"
>>> label("Cc1ccc2c(n1)Oc1nc(-c3ccc([S+](C)[O-])cc3)ccc1C2C(C)(C)C(=O)Nc1nncs1 (stereo not shown)")
"F"
>>> label("CN(C)C(=O)c1ccc(-c2ccc3c(n2)Oc2nc(Cl)ccc2C3C(C)(C)C(=O)Nc2nnc(C(=O)NC3CC3)s2)cc1 (stereo not shown)")
"F"
>>> label("CC(=O)c1ccc(-c2ccc3c(n2)Oc2nc(C)ccc2C3C(C)(C)C(=O)Nc2nncs2)cc1 (stereo not shown)")
"T"

Task item: Identify whether the compound Cc1ccc2c(n1)Oc1nc(-c3ccc(C(=O)N4CCC(F)(F)C4)cc3)ccc1[C@H]2C(C)(C)C(=O)Nc1nncs1 records EC50 below 100 nM.
Reply: F

Task item: Identify whether the compound CN(C)C(=O)c1ccc(-c2ccc3c(n2)Oc2nc(N(C)C)ccc2C3C(C)(C)C(=O)Nc2nncs2)cc1F (stereo not shown) records EC50 below 100 nM.
Reply: F

Task item: Identify whether the compound CCN(C)C(=O)c1ccc(-c2ccc3c(n2)Oc2nc(C)ccc2[C@@H]3C(C)(C)C(=O)Nc2nnc(C(=O)NC(C)C)s2)cc1 records EC50 below 100 nM.
Reply: F

Task item: Identify whether the compound Cc1ccc2c(n1)Oc1nc(-c3ccc(OC(C)C)cc3)ccc1[C@H]2C(C)(C)C(=O)Nc1nncs1 records EC50 below 100 nM.
Reply: T

// data source = patent US8304539B2
